# Test system: Staphylococcus aureus
# assay_explanation: Antimicrobial activity against methicillin-resistant Staphylococcus aureus 75 after 18 hrs by broth microdilution method
# Assay type: functional
Residues, ends and D or L forms follow the SMILES beside them. *: point of attachment. Stearoyl = CCCCCCCCCCCCCCCCCC(=O)*; Palmitoyl = CCCCCCCCCCCCCCCC(=O)*; Myristoyl = CCCCCCCCCCCCCC(=O)*; Decanoyl = CCCCCCCCCC(=O)*; Octanoyl = CCCCCCCC(=O)*
Binarize MIC at 20 µM; below is met, at or above is not met.

>>> qualitative_label("CCCCCCCC(=O)N[C@@H](CCCNC(=N)N)C(=O)N[C@@H](CCCNC(=N)N)C(=O)N[C@@H](Cc1c[nH]c2ccccc12)C(N)=O (Octanoyl-Arg-Arg-Trp-NH2)")
"not met"
>>> qualitative_label("CCCCCCCCCC(=O)N[C@@H](CCCNC(=N)N)C(=O)N[C@@H](Cc1c[nH]c2ccccc12)C(=O)N[C@@H](Cc1c[nH]c2ccccc12)C(N)=O (Decanoyl-Arg-Trp-Trp-NH2)")
"met"
>>> qualitative_label("CCCCCCCCCC(=O)N[C@@H](Cc1c[nH]c2ccccc12)C(=O)N[C@@H](CCCNC(=N)N)C(=O)N[C@@H](CCCNC(=N)N)C(N)=O (Decanoyl-Trp-Arg-Arg-NH2)")
"met"

Query: Hi there! Is MIC for CCCCCCCCCCCCCC(=O)N[C@@H](CCCNC(=N)N)C(=O)N[C@@H](CCCNC(=N)N)C(=O)N[C@@H](Cc1c[nH]c2ccccc12)C(N)=O (Myristoyl-Arg-Arg-Trp-NH2) below 20 µM, do you know?
Result: met

Query: Item CCCCCCCCCCCCCCCCCC(=O)N[C@@H](CCCNC(=N)N)C(=O)N[C@@H](CCCNC(=N)N)C(=O)N[C@@H](Cc1c[nH]c2ccccc12)C(N)=O (Stearoyl-Arg-Arg-Trp-NH2) : MIC beneath 20 µM, strictly?
Result: met

Query: In plain terms, does CCCCCCCCCC(=O)N[C@@H](CCCNC(=N)N)C(=O)N[C@@H](CCCNC(=N)N)C(=O)N[C@@H](CCCNC(=N)N)C(N)=O (Decanoyl-Arg-Arg-Arg-NH2) come in under 20 µM for MIC?
Result: not met

Query: Please check: MIC for CCCCCCCCCCCCCCCC(=O)N[C@@H](CCCNC(=N)N)C(=O)N[C@@H](Cc1c[nH]c2ccccc12)C(=O)N[C@@H](CCCNC(=N)N)C(N)=O (Palmitoyl-Arg-Trp-Arg-NH2) , strictly under 20 µM or not?
Result: met

* * *

# Tested on: Staphylococcus aureus
# assay_explanation: Antimicrobial activity against Staphylococcus aureus ATCC 25923 after 18 hrs by broth microdilution method
# Format: functional
Residues, ends and D or L forms follow the SMILES beside them. *: point of attachment. Myristoyl = CCCCCCCCCCCCCC(=O)*; Lauroyl = CCCCCCCCCCCC(=O)*; Decanoyl = CCCCCCCCCC(=O)*
observed_property: MIC (µM)
Use µM as the unit, but write only the number.

>>> value_observed("CCCCCCCCCC(=O)N[C@@H](CCCNC(=N)N)C(=O)N[C@@H](Cc1c[nH]c2ccccc12)C(=O)N[C@@H](CCCNC(=N)N)C(N)=O (Decanoyl-Arg-Trp-Arg-NH2)")
16
>>> value_observed("CCCCCCCCCCCC(=O)N[C@@H](CCCNC(=N)N)C(=O)N[C@@H](Cc1c[nH]c2ccccc12)C(=O)N[C@@H](Cc1c[nH]c2ccccc12)C(N)=O (Lauroyl-Arg-Trp-Trp-NH2)")
32
>>> value_observed("CCCCCCCCCCCCCC(=O)N[C@@H](CCCNC(=N)N)C(=O)N[C@@H](Cc1c[nH]c2ccccc12)C(=O)N[C@@H](Cc1c[nH]c2ccccc12)C(N)=O (Myristoyl-Arg-Trp-Trp-NH2)")
8

Query: Given the entry CCCCCCCCCC(=O)N[C@@H](CCCNC(=N)N)C(=O)N[C@@H](CCCNC(=N)N)C(=O)N[C@@H](Cc1c[nH]c2ccccc12)C(N)=O (Decanoyl-Arg-Arg-Trp-NH2) , report its measured MIC.
Result: 32

* * *

# System: Staphylococcus epidermidis
# assay_explanation: Antimicrobial activity against Staphylococcus epidermidis ATCC 12228 after 18 hrs by broth microdilution method
# Assay type: functional
Positions of bridges follow the written chain, without caps; N, C: chain ends. Non-standard residues stand in square brackets, D forms with d. Residues, ends and D or L forms follow the SMILES beside them. *: point of attachment. Palmitoyl = CCCCCCCCCCCCCCCC(=O)*; Myristoyl = CCCCCCCCCCCCCC(=O)*; Lauroyl = CCCCCCCCCCCC(=O)*; X1 = CC[C@H](C)CCCCC(=O)*; Dab = NCC[C@H](N)C(=O)O
# note: boundary value 20 µM maps to FALSE; MIC below it maps to TRUE

Consider the following illustrative entries.
>>> qualitative_label("CCCCCCCCCCCC(=O)N[C@@H](CCCNC(=N)N)C(=O)N[C@@H](Cc1c[nH]c2ccccc12)C(=O)N[C@@H](CCCNC(=N)N)C(N)=O (Lauroyl-Arg-Trp-Arg-NH2)")
"TRUE"
>>> qualitative_label("CCCCCCCCCCCCCCCC(=O)N[C@@H](CCCNC(=N)N)C(=O)N[C@@H](Cc1c[nH]c2ccccc12)C(=O)N[C@@H](Cc1c[nH]c2ccccc12)C(N)=O (Palmitoyl-Arg-Trp-Trp-NH2)")
"TRUE"
>>> qualitative_label("CC[C@H](C)CCCCC(=O)N[C@@H](CCN)C(=O)N[C@H](C(=O)N[C@@H](CCN)C(=O)N[C@H]1CCNC(=O)[C@H]([C@@H](C)O)NC(=O)[C@H](CCN)NC(=O)[C@H](CCN)NC(=O)[C@H](CC(C)C)NC(=O)[C@@H](Cc2ccccc2)NC(=O)[C@H](CCN)NC1=O)[C@@H](C)O (X1-[Dab]T[Dab][Dab][Dab][dF]L[Dab][Dab]T; lactam 4-C)")
"TRUE"
>>> qualitative_label("CCCCCCCCCCCCCCCC(=O)N[C@@H](CCCNC(=N)N)C(=O)N[C@@H](Cc1c[nH]c2ccccc12)C(=O)N[C@@H](CCCNC(=N)N)C(N)=O (Palmitoyl-Arg-Trp-Arg-NH2)")
"TRUE"
>>> qualitative_label("O=C(O)c1cn(C2CC2)c2cc(N3CCNCC3)c(F)cc2c1=O [CIPROFLOXACIN]")
"TRUE"

Query: Confirm or reject: MIC of CCCCCCCCCCCCCC(=O)N[C@@H](Cc1c[nH]c2ccccc12)C(=O)N[C@@H](CCCNC(=N)N)C(=O)N[C@@H](CCCNC(=N)N)C(N)=O (Myristoyl-Trp-Arg-Arg-NH2) lies strictly below 20 µM
Result: TRUE

Query: MIC under 20 µM? Item: CCCCCCCCCCCCCC(=O)N[C@@H](CCCNC(=N)N)C(=O)N[C@@H](CCCNC(=N)N)C(=O)N[C@@H](Cc1c[nH]c2ccccc12)C(N)=O (Myristoyl-Arg-Arg-Trp-NH2)
Result: TRUE

* * *

# assay_explanation: Therapeutic index, ratio of MHC for mouse RBC to geometric mean of peptide MIC for Staphylococcus epidermidis ATCC 12228
# Format: toxicity
# study_conditions: pooled result: one value given for 6 cell lines, strains, targets or settings, read-out: TI
Residues, ends and D or L forms follow the SMILES beside them. *: point of attachment. Stearoyl = CCCCCCCCCCCCCCCCCC(=O)*; Palmitoyl = CCCCCCCCCCCCCCCC(=O)*; Myristoyl = CCCCCCCCCCCCCC(=O)*; Lauroyl = CCCCCCCCCCCC(=O)*; Decanoyl = CCCCCCCCCC(=O)*; Octanoyl = CCCCCCCC(=O)*
observed_property: selectivity ratio

>>> value_observed("CCCCCCCC(=O)N[C@@H](CCCNC(=N)N)C(=O)N[C@@H](Cc1c[nH]c2ccccc12)C(=O)N[C@@H](Cc1c[nH]c2ccccc12)C(N)=O (Octanoyl-Arg-Trp-Trp-NH2)")
29.5
>>> value_observed("CCCCCCCCCCCCCC(=O)N[C@@H](CCCNC(=N)N)C(=O)N[C@@H](Cc1c[nH]c2ccccc12)C(=O)N[C@@H](Cc1c[nH]c2ccccc12)C(N)=O (Myristoyl-Arg-Trp-Trp-NH2)")
56.9
>>> value_observed("CCCCCCCCCC(=O)N[C@@H](CCCNC(=N)N)C(=O)N[C@@H](CCCNC(=N)N)C(=O)N[C@@H](Cc1c[nH]c2ccccc12)C(N)=O (Decanoyl-Arg-Arg-Trp-NH2)")
32

Query: Given CCCCCCCCCCCCCCCCCC(=O)N[C@@H](CCCNC(=N)N)C(=O)N[C@@H](CCCNC(=N)N)C(=O)N[C@@H](CCCNC(=N)N)C(N)=O (Stearoyl-Arg-Arg-Arg-NH2) , state its recorded selectivity ratio.
Result: 4

Query: Item under review: CCCCCCCCCCCCCCCCCC(=O)N[C@@H](CCCNC(=N)N)C(=O)N[C@@H](Cc1c[nH]c2ccccc12)C(=O)N[C@@H](CCCNC(=N)N)C(N)=O (Stearoyl-Arg-Trp-Arg-NH2) . Reported selectivity ratio?
Result: 1.04

Query: Record request: selectivity ratio value, item CCCCCCCCCC(=O)N[C@@H](Cc1c[nH]c2ccccc12)C(=O)N[C@@H](CCCNC(=N)N)C(=O)N[C@@H](CCCNC(=N)N)C(N)=O (Decanoyl-Trp-Arg-Arg-NH2)
Result: 21.3

Query: For CCCCCCCCCCCCCCCC(=O)N[C@@H](CCCNC(=N)N)C(=O)N[C@@H](CCCNC(=N)N)C(=O)N[C@@H](CCCNC(=N)N)C(N)=O (Palmitoyl-Arg-Arg-Arg-NH2) , what is its reported selectivity ratio?
Result: 5.83

Query: Given the compound CCCCCCCCCCCC(=O)N[C@@H](CCCNC(=N)N)C(=O)N[C@@H](Cc1c[nH]c2ccccc12)C(=O)N[C@@H](Cc1c[nH]c2ccccc12)C(N)=O (Lauroyl-Arg-Trp-Trp-NH2) , what is its reported selectivity ratio?
Result: 12.8

Query: What does the record list as selectivity ratio for CCCCCCCCCCCC(=O)N[C@@H](CCCNC(=N)N)C(=O)N[C@@H](Cc1c[nH]c2ccccc12)C(=O)N[C@@H](CCCNC(=N)N)C(N)=O (Lauroyl-Arg-Trp-Arg-NH2) ?
Result: 8

Query: Item under review: CCCCCCCCCC(=O)N[C@@H](CCCNC(=N)N)C(=O)N[C@@H](Cc1c[nH]c2ccccc12)C(=O)N[C@@H](Cc1c[nH]c2ccccc12)C(N)=O (Decanoyl-Arg-Trp-Trp-NH2) . Reported selectivity ratio?
Result: 27.4

All values here come from ChEMBL document CHEMBL4706653.
